Recorded values, source the supplement of paper PMC5998384.

Measured solubility in G1/S (log2) by item
- Tested on: HeLa Kyoto
- protocolNotes: solubility in G1/S (NP-40 vs SDS abundance) (log2 ratio); higher = more soluble
- conditionSet: cell cycle stage: G1/S
measuredAttribute: solubility in G1/S (log2)

1) MEAAETEAEAAALEVLAEVAGILEPVGLQEEAELPAKILVEFVVDSQKKDKLLCSQLQVADFLQNILAQEDTAKGLDPLASEDTSRQKAIAAKEQWKELKATYREHVEAIKIGLTKALTQMEEAQRKRTQLREAFEQLQAKKQMAMEKRRAVQNQWQLQQEKHLQHLAEVSAEVRERKTGTQQELDRVFQKLGNLKQQAEQERDKLQRYQTFLQLLYTLQGKLLFPEAEAEAENLPDDKPQQPTRPQEQSTGDTMGRDPGVSFKAVGLQPAGDVNLP [ZWINT]    -0.0767
2) MVDKKLVVVFGGTGAQGGSVARTLLEDGTFKVRVVTRNPRKKAAKELRLQGAEVVQGDQDDQVIMELALNGAYATFIVTNYWESCSQEQEVKQGKLLADLARRLGLHYVVYSGLENIKKLTAGRLAAAHFDGKGEVEEYFRDIGVPMTSVRLPCYFENLLSHFLPQKAPDGKSYLLSLPTGDVPMDGMSVSDLGPVVLSLLKMPEKYVGQNIGLSTCRHTAEEYAALLTKHTRKVVHDAKMTPEDYEKLGFPGARDLANMFRFYALRPDRDIELTLRLNPKALTLDQWLEQHKGDFNLL [NMRAL1]    0.417

----------
Measured thermal stability score by item
- Test system: HeLa Kyoto
- protocolNotes: thermal stability score vs G1/S (z-score of summed log2 fold changes over temperatures); higher = more thermally stable than in G1/S
- conditionSet: cell cycle stage: mitosis
measuredAttribute: thermal stability score

1. MSELEQLRQEAEQLRNQIRDARKACGDSTLTQITAGLDPVGRIQMRTRRTLRGHLAKIYAMHWGTDSRLLVSASQDGKLIIWDSYTTNKVHAIPLRSSWVMTCAYAPSGNFVACGGLDNICSIYSLKTREGNVRVSRELPGHTGYLSCCRFLDDNQIITSSGDTTCALWDIETGQQTVGFAGHSGDVMSLSLAPDGRTFVSGACDASIKLWDVRDSMCRQTFIGHESDINAVAFFPNGYAFTTGSDDATCRLFDLRADQELLMYSHDNIICGITSVAFSRSGRLLLAGYDDFNCNIWDAMKGDRAGVLAGHDNRVSCLGVTDDGMAVATGSWDSFLKIWN [GNB2]    -0.878
2. MDPFLVLLHSVSSSLSSSELTELKFLCLGRVGKRKLERVQSGLDLFSMLLEQNDLEPGHTELLRELLASLRRHDLLRRVDDFEAGAAAGAAPGEEDLCAAFNVICDNVGKDWRRLARQLKVSDTKIDSIEDRYPRNLTERVRESLRIWKNTEKENATVAHLVGALRSCQMNLVADLVQEVQQARDLQNRSGAMSPMSWNSDASTSEAS [FADD]    1.4
3. ARFGEF1    0.0301
4. MDLWPGAWMLLLLLFLLLLFLLPTLWFCSPSAKYFFKMAFYNGWILFLAVLAIPVCAVRGRNVENMKILRLMLLHIKYLYGIRVEVRGAHHFPPSQPYVVVSNHQSSLDLLGMMEVLPGRCVPIAKRELLWAGSAGLACWLAGVIFIDRKRTGDAISVMSEVAQTLLTQDVRVWVFPEGTRNHNGSMLPFKRGAFHLAVQAQVPIVPIVMSSYQDFYCKKERRFTSGQCQVRVLPPVPTEGLTPDDVPALADRVRHSMLTVFREISTDGRGGGDYLKKPGGGG [AGPAT1]    0.125
5. MSETVICSSRATVMLYDDGNKRWLPAGTGPQAFSRVQIYHNPTANSFRVVGRKMQPDQQVVINCAIVRGVKYNQATPNFHQWRDARQVWGLNFGSKEDAAQFAAGMASALEALEGGGPPPPPALPTWSVPNGPSPEEVEQQKRQQPGPSEHIERRVSNAGGPPAPPAGGPPPPPGPPPPPGPPPPPGLPPSGVPAAAHGAGGGPPPAPPLPAAQGPGGGGAGAPGLAAAIAGAKLRKVSKQEEASGGPTAPKAESGRSGGGGLMEEMNAMLARRRKATQVGEKTPKDESANQEEPEARVPAQSESVRRPWEKNSTTLPRMKSSSSVTTSETQPCTPSSSDYSDLQRVKQELLEEVKKELQKVKEEIIEAFVQELRKRGSP [VASP]    2.18
6. MPHRKERPSGSSLHTHGSTGTAEGGNMSRLSLTRSPVSPLAAQGIPLPAQLTKSNAPVHIDVGGHMYTSSLATLTKYPDSRISRLFNGTEPIVLDSLKQHYFIDRDGEIFRYVLSFLRTSKLLLPDDFKDFSLLYEEARYYQLQPMVRELERWQQEQEQRRRSRACDCLVVRVTPDLGERIALSGEKALIEEVFPETGDVMCNSVNAGWNQDPTHVIRFPLNGYCRLNSVQVLERLFQRGFSVAASCGGGVDSSQFSEYVLCREERRPQPTPTAVRIKQEPLD [KCTD15]    0.00454

----------
- Test system: HeLa Kyoto
- protocolNotes: thermal stability score vs G1/S (z-score of summed log2 fold changes over temperatures); higher = more thermally stable than in G1/S
- conditionSet: cell cycle stage: early G1 (4.5 h after nocodazole release)
measuredAttribute: thermal stability score

1) MAGTGLVAGEVVVDALPYFDQGYEAPGVREAAAALVEEETRRYRPTKNYLSYLTAPDYSAFETDIMRNEFERLAARQPIELLSMKRYELPAPSSGQKNDITAWQECVNNSMAQLEHQAVRIENLELMSQHGCNAWKVYNENLVHMIEHAQKELQKLRKHIQDLNWQRKNMQLTAGSKLREMESNWVSLVSKNYEIERTIVQLENEIYQIKQQHGEANKENIRQDF [BCAS2]    -0.858
2) MEADKDDTQQILKEHSPDEFIKDEQNKGLIDEITKKNIQLKKEIQKLETELQEATKEFQIKEDIPETKMKFLSVETPENDSQLSNISCSFQVSSKVPYEIQKGQALITFEKEEVAQNVVSMSKHHVQIKDVNLEVTAKPVPLNSGVRFQVYVEVSKMKINVTEIPDTLREDQMRDKLELSFSKSRNGGGEVDRVDYDRQSGSAVITFVEIGVADKILKKKEYPLYINQTCHRVTVSPYTEIHLKKYQIFSGTSKRTVLLTGMEGIQMDEEIVEDLINIHFQRAKNGGGEVDVVKCSLGQPHIAYFEE [NMI]    -1.52
3) MAIKSIASRLRGSRRFLSGFVAGAVVGAAGAGLAALQFFRSQGAEGALTGKQPDGSAEKAVLEQFGFPLTGTEARCYTNHALSYDQAKRVPRWVLEHISKSKIMGDADRKHCKFKPDPNIPPTFSAFNEDYVGSGWSRGHMAPAGNNKFSSKAMAETFYLSNIVPQDFDNNSGYWNRIEMYCRELTERFEDVWVVSGPLTLPQTRGDGKKIVSYQVIGEDNVAVPSHLYKVILARRSSVSTEPLALGAFVVPNEAIGFQPQLTEFQVSLQDLEKLSGLVFFPHLDRTSDIRNICSVDTCKLLDFQEFTLYLSTRKIEGARSVLRLEKIMENLKNAEIEPDDYFMSRYEKKLEELKAKEQSGTQIRKPS [EXOG]    2.74
4) MGALVIRGIRNFNLENRAEREISKMKPSVAPRHPSTNSLLREQISLYPEVKGEIARKDEKLLSFLKDVYVDSKDPVSSLQVKAAETCQEPKEFRLPKDHHFDMINIKSIPKGKISIVEALTLLNNHKLFPETWTAEKIMQEYQLEQKDVNSLLKYFVTFEVEIFPPEDKKAIRSK [NDUFAF4]    -2.2
5) MSETVICSSRATVMLYDDGNKRWLPAGTGPQAFSRVQIYHNPTANSFRVVGRKMQPDQQVVINCAIVRGVKYNQATPNFHQWRDARQVWGLNFGSKEDAAQFAAGMASALEALEGGGPPPPPALPTWSVPNGPSPEEVEQQKRQQPGPSEHIERRVSNAGGPPAPPAGGPPPPPGPPPPPGPPPPPGLPPSGVPAAAHGAGGGPPPAPPLPAAQGPGGGGAGAPGLAAAIAGAKLRKVSKQEEASGGPTAPKAESGRSGGGGLMEEMNAMLARRRKATQVGEKTPKDESANQEEPEARVPAQSESVRRPWEKNSTTLPRMKSSSSVTTSETQPCTPSSSDYSDLQRVKQELLEEVKKELQKVKEEIIEAFVQELRKRGSP [VASP]    0.605
6) MLRLVPTGARAIVDMSYARHFLDFQGSAIPQAMQKLVVTRLSPNFREAVTLSRDCPVPLPGDGDLLVRNRFVGVNASDINYSAGRYDPSVKPPFDIGFEGIGEVVALGLSASARYTVGQAVAYMAPGSFAEYTVVPASIATPVPSVKPEYLTLLVSGTTAYISLKELGGLSEGKKVLVTAAAGGTGQFAMQLSKKAKCHVIGTCSSDEKSAFLKSLGCDRPINYKTEPVGTVLKQEYPEGVDVVYESVGGAMFDLAVDALATKGRLIVIGFISGYQTPTGLSPVKAGTLPAKLLKKSASVQGFFLNHYLSKYQAAMSHLLEMCVSGDLVCEVDLGDLSPEGRFTGLESIFRAVNYMYMGKNTGKIVVELPHSVNSKL [ZADH2]    0.549
7) MELFLAGRRVLVTGAGKGIGRGTVQALHATGARVVAVSRTQADLDSLVRECPGIEPVCVDLGDWEATERALGSVGPVDLLVNNAAVALLQPFLEVTKEAFDRSFEVNLRAVIQVSQIVARGLIARGVPGAIVNVSSQCSQRAVTNHSVYCSTKGALDMLTKVMALELGPHKIRVNAVNPTVVMTSMGQATWSDPHKAKTMLNRIPLGKFAEVEHVVNAILFLLSDRSGMTTGSTLPVEGGFWAC [DCXR]    -1.92
8) MAAPLELSCWGGGWGLPSVHSESLVVMAYAKFSGAPLKVNVIDNTWRGSRGDVPILTTEDDMVSQPAKILNFLRKQKYNADYELSAKQGADTLAYIALLEEKLLPAVLHTFWVESDNYFTVTKPWFASQIPFPLSLILPGRMSKGALNRILLTRGQPPLYHLREVEAQIYRDAKECLNLLSNRLGTSQFFFGDTPSTLDAYVFGFLAPLYKVRFPKVQLQEHLKQLSNLCRFCDDILSSYFRLSLGGISPAGQETVDANLQKLTQLVNKESNLIEKMDDNLRQSPQLPPRKLPTLKLTPAEEENNSFQRLSP [MTX3]    -1.88
9) MFPFYSCWRTGLLLLLLAVAVRESWQTEEKTCDLVGEKGKESEKELALVKRLKPLFNKSFESTVGQGSDTYIYIFRVCREAGNHTSGAGLVQINKSNGKETVVGRLNETHIFNGSNWIMLIYKGGDEYDNHCGKEQRRAVVMISCNRHTLADNFNPVSEERGKVQDCFYLFEMDSSLACSPEISHLSVGSILLVTFASLVAVYVVGGFLYQRLVVGAKGMEQFPHLAFWQDLGNLVADGCDFVCRSKPRNVPAAYRGVGDDQLGEESEERDDHLLPM [M6PR]    -1.67
10) MFRRPVLQVLRQFVRHESETTTSLVLERSLNRVHLLGRVGQDPVLRQVEGKNPVTIFSLATNEMWRSGDSEVYQLGDVSQKTTWHRISVFRPGLRDVAYQYVKKGSRIYLEGKIDYGEYMDKNNVRRQATTIIADNIIFLSDQTKEKE [SSBP1]    0.62
